# Test system: H1299 human non-small cell lung carcinoma
# EXPERIMENT SUMMARY: Antiproliferative activity, MTT
# Assay type: cell-based
# STUDY CONDITIONS: 48 h treatment, read-out: Antiproliferative Activity (IC50 ± SD) H1299
MEASURE NAME: IC50 (µM)
Express your answer in µM, writing the number without its unit.

1. O=C(Nc1ccc(Nc2ccnc3ccccc23)cc1)c1ccc(Nc2ccnc3ccccc23)cc1 [Compound 2, reference compound]
11.4

IC50 lookup needed for O=C(Nc1ccc(Nc2ccnc3ccccc23)cc1)c1cccc(Nc2ccnc3ccccc23)c1 [Compound 2a] , thanks.
14.7

----------
# MEASUREMENT TARGET: human DNMT1 (hDNMT1) (Homo sapiens)
# Construct: His
# Sequence (P26358 whole entry): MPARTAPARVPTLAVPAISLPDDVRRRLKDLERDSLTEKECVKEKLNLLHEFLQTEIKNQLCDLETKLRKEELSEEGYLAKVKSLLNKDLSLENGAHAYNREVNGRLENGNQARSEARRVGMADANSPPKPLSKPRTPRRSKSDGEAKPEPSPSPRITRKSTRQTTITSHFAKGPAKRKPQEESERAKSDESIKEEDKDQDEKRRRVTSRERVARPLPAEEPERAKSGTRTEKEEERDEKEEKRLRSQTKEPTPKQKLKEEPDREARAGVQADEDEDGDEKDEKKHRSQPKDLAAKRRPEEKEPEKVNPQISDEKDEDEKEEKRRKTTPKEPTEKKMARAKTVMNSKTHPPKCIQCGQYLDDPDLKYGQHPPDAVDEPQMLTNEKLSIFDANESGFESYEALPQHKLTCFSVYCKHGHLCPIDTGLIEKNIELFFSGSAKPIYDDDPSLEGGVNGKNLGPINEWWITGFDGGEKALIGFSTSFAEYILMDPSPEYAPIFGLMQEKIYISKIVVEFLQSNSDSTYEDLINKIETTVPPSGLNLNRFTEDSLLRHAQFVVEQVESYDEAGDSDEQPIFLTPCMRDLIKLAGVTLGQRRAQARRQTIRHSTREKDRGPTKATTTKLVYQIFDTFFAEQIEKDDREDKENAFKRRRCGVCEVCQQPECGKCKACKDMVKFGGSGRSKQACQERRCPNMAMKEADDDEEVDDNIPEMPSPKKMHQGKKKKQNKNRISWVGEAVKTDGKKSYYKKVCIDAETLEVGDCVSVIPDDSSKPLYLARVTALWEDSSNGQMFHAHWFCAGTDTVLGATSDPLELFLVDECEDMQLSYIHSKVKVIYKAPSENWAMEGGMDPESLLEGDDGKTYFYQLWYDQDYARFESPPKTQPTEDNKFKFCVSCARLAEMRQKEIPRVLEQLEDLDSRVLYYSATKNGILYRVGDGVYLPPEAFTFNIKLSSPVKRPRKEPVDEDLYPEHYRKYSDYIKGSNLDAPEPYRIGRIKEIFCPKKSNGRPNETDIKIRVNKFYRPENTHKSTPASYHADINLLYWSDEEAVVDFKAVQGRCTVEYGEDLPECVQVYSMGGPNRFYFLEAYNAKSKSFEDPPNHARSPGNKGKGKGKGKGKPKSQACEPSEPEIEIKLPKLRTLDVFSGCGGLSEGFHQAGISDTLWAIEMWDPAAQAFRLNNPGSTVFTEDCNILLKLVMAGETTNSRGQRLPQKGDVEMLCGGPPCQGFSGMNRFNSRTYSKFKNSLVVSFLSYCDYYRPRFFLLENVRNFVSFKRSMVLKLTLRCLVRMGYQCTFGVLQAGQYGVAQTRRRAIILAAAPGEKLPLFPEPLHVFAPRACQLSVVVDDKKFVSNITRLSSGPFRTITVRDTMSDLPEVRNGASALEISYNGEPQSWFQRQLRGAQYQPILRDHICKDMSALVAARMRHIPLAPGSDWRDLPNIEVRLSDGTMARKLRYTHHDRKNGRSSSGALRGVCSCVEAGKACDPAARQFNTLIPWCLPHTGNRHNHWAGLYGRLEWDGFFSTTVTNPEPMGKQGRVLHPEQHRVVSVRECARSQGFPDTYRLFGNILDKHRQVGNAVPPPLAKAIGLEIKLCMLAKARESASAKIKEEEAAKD
# EXPERIMENT SUMMARY: DNMT1 assay ([methyl-3H]SAM, Flashplate)
# STUDY CONDITIONS: mean of at least two independent experiments; read-out: Enzyme Inhibition (EC50 ± SD) hDNMT1
Listed below: pEC50 values for each entry.
Remember the convention: pEC50 equals -log10 of concentration in molar.

Recorded results for 2 compounds are shown here.
1) O=C(Nc1ccc(Nc2ccnc3ccccc23)cc1)c1cccc(Nc2ccnc3ccccc23)c1
4.64
2) Cc1cc(Nc2cccc(CNC(=O)c3cccc(Nc4ccnc5ccccc45)c3)c2)nc(N)n1
4.46

Continue with the compound presented below.
pEC50 lookup needed for `O=C(Nc1cccc(Nc2ccnc3ccccc23)c1)c1ccc(Nc2ccnc3ccccc23)cc1` , thanks.
4.66

Source of measurements: paper PMC7073229
